experimental_protocol: NOVARTIS: Cytotoxicity against human hepatocellular carcinoma cell line (Huh7)
Format: toxicity, cell-based, Huh-7
reported_conditions: Huh7 cells (hepatocellular carcinoma cell line)
readout_type: CC50

molecule | readout_type | assay_value
CCCOC(=O)C1=C(C)NC2=C(C(=O)CC(c3ccc(OC)c(OC)c3)C2)C1c1ccccc1Cl (centres undefined) | CC50 | > 100 µM

Could you tell me which CC50 is on file for CCC(c1nc2ccccc2c(=O)n1-c1ccc(F)c(Cl)c1)N(CCc1ccccc1)C(=O)COc1ccc(Cl)cc1 (centres undefined) ? > 6.45 µM

What do we get for OC(CN1CCN(CC=Cc2ccccc2)CC1)Cn1c2ccc(Cl)cc2c2cc(Cl)ccc21 (centres undefined) ? 17.9 µM

Query COC(=O)[C@@H]1C[C@@H](NC(=O)c2ccc(OC)cc2)CN1CC(c1ccccc1)c1ccccc1 next > 4.17 µM

# iterate: CCOC(=O)C1=C(C)NC(=Cc2cc(C)n(-c3ccc(C)cc3)c2C)C1=O > 100 µM

Moving on to CC(C)CNC(=O)c1cnc(NCCCN2CCCC2)nc1NCC1CCCCC1 > 10 µM

# iterate: CC1=CC(=O)OC[C@]23CCC(C)=C[C@H]2O[C@@H]2C[C@@H](OC(=O)C=CC=CC(=O)OCC1)[C@@]3(C)[C@]21CO1 0.206 µM

Now consider Cc1ccc2nc(-c3ccc(O)cc3)oc2c1 . > 10 µM

Same again, this time with O=C(C1CCN(S(=O)(=O)c2cccc3nonc23)CC1)N1CCCc2ccccc21 > 10 µM

Next: O=C(C[n+]1cc(-c2ccc(F)cc2)n2c1CCC2)Nc1ccc(Cl)cc1 > 100 µM

And for COc1ccc(Cn2c(C)nc3cc(NC(=O)Nc4ccccc4)c(C)nc32)cc1 ? > 100 µM

Entry to check: COC(=O)c1ccc(N2C(=O)C3C(C2=O)C2(c4ccccc4)C(=O)C3(c3ccccc3)C(c3ccc(OC)cc3)=C2c2ccc(OC)cc2)cc1 (centres undefined) > 100 µM

Entry to check: Nc1ccc(-c2nc3ccc(-c4nc5ccc(N)cc5[nH]4)cc3[nH]2)cc1 > 100 µM

Now give it for CCc1cc(C(=O)OC)c(NC(=S)NC(C)c2ccncc2)s1 (centres undefined) too. > 86.9 µM

// same read-out, input: O=c1c2c([nH]c3ccccc13)CCCCCCCCCC2 > 100 µM
